Molecular target: GRID2IP_1, A4D2P6
Sequence (A4D2P6 1-87): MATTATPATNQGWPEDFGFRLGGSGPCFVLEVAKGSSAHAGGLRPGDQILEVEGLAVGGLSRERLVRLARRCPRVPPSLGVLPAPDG
Assay: holdup assay
Parameters: key: below the threshold = too weak to quantify, mostly under pKd 3.1 to 4
Conditions: plain residues with an end cap or a label only (N-terminal biotin on a linker: ado-ado)
EXPERIMENTAL ENDPOINT: pKd

>>> measured_value("YYKRPVQEWV [MMP24, Q9Y5R2]")
"below the threshold"
>>> measured_value("TSQESEDTYL [TBC1D10A, Q9BXI6]")
"below the threshold"
>>> measured_value("KSGKQTMLVV [TRIM29, Q14134;Q14134-2]")
"below the threshold"
>>> measured_value("QGPVETESVV [SLC45A4, Q5BKX6]")
"below the threshold"
